- METHOD NOTES: growth of efflux-deficient E. coli DRC39 – strain DRC39, OD650, 48 h, E. coli filamentation inducers, primary screen (AID 1179);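 also: screen aims at cell division blockers that make cells filament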
- RUN CONDITIONS: E. coli DRC39 delta-acrAB growth, higher = more signal, called active from +8 up or from −8 down
Consider the following compounds; for each one, report its z-score.
Give bare numbers.

Lookup result for "C=C(COC)/C(=C/C[C@H](OC(C)=O)c1ccccc1OCCO)c1cc(C(=O)OC)ccc1OC" ; measured z-score: -0.653

Lookup result for "CCCCCCc1nc(Cc2cc(OC)c(OC)c(OC)c2)cc2c1[Si](C(C)C)(C(C)C)O[C@H]2c1ccccc1" ; measured z-score: -0.585

Lookup result for "O=C1C[C@@](C(=O)NCc2ccccc2)(c2ccc([N+](=O)[O-])cc2)[C@@H](c2ccc(CO)cc2)N1C1CCCCC1" ; measured z-score: 1.46

Each compound below has a reported value. Please supply its z-score.
1. CC(C)(C)N1CC=CC23O[C@@H]4C=CCOC(=O)[C@@H]4[C@H]2C(=O)N(CCO)[C@@H]3C1=O (some centres not stated)
2. COc1cc(CO)cc(I)c1O[C@H]1C=C(C(=O)NCCO)C[C@@H](NC2CCCCCC2)[C@@H]1O
3. CC(C)N1C(=O)c2ccccc2[C@](C)(C(=O)NCC(F)(F)F)[C@@H]1c1ccc(CO)cc1
4. COCCOC(=O)N1C(=O)[C@@]2(c3cc(C#CCC(C(=O)OC)C(=O)OC)ccc31)[C@H](C(=O)Nc1nc3ccccc3s1)[C@H]1C(=O)O[C@H](c3ccccc3)[C@H](c3ccccc3)N1[C@@H]2c1ccc(O)cc1

**A:**
1. -0.147
2. 0.12
3. -0.0513
4. -0.186

Each compound below has a reported value. Please supply its z-score.
1. C=CCC(OC(C)=O)[C@@H]1[C@@H](N(Cc2cccc3ccccc23)C(=O)Cc2ccc(OC)cc2)c2cc(OCCCO)ccc2N1C(=O)Cc1ccc2ccccc2c1 (some centres not stated)
2. CCOC(=O)c1cn(C[C@H](Cc2ccccc2)NC(=O)N[C@H](CO)CCc2oc(C(C)=O)c(C(=O)OC)c2C(=O)OC)nn1
3. C=C(CCCC)/C(=C/C[C@H](OC(=O)c1ccncc1)c1ccccc1OCCO)c1cc(C(=O)OC)ccc1OC
4. COc1cc(OC)c(C(O)C2C=CC3C(=O)N(c4ccccc4)C(=O)C3N2Nc2ccc(C(C)C)cc2)cc1Br (configuration not stated)
5. CC(C)N1C(=O)c2ccccc2[C@@H](C(=O)NCC(F)(F)F)[C@@H]1c1ccc(CO)cc1

**A:**
[0.248, -0.356, 0.0401, 0.48, -0.484]

Each compound below has a reported value. Please supply its z-score.
1. C[C@@H]1ON(c2ccc(I)cc2)[C@H](c2cccc(NC(=O)OCC3c4ccccc4-c4ccccc43)c2)[C@H]1C(=O)N1C(=O)OC[C@H]1Cc1ccccc1
2. O=C1O[C@@H](c2ccccc2)[C@@H](c2ccccc2)N2[C@@H](c3ccc(OCCO)cc3)[C@]3(C(=O)Nc4ccc(C#CC5(O)CCCCCC5)cc43)[C@@H](C(=O)O)[C@H]12

**A:**
1: 0.818; 2: 1.06

Each compound below has a reported value. Please supply its z-score.
1. COC(=O)[C@@]1(Cc2ccc(F)cc2)[C@H]2c3cc(C(=O)N(C)C)n(C)c3C[C@H]2CN1C(=O)c1ccccc1
2. CCCC[C@H]1OB(O)C[C@H]2C1=C(COc1ccccc1)C[C@H]1C(=O)C=CC(=O)[C@H]12
3. CN(C)C(=O)[C@@]1(Cc2ccccc2CN=[N+]=[N-])COC(c2ccc(OCCCO)cc2)=N1

**A:**
[-0.705, 0.715, 1.58]
